target: T1, human somatostatin receptor protein subtype 2 (SSTR2) (human, UniProt P30874 1-369); assay: displacement of 200 pM [125I]-somatostatin from membrane fraction of CHO cells expressing the human receptor; filter binding, Hill plot
T1 construct: whole, on cells; also called cell line SSTR2-HS5-9
T1 sequence (P30874 whole entry): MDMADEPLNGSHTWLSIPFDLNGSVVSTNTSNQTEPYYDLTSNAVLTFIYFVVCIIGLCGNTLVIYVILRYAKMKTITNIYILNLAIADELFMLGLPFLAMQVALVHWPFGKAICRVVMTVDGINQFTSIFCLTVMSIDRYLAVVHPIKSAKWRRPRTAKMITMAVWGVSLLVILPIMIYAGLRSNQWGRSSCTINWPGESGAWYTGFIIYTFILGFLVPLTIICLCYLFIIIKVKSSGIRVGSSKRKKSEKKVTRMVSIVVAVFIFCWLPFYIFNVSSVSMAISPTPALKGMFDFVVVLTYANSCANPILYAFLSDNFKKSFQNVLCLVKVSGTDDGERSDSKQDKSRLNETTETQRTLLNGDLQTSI
Bridges are numbered along the chain shown (N, C = ends). Where no end group is shown, it is not given here.
measurementLabel: IC50 (nM)

binder	IC50 / nM
MPCRNFFWKTFSSCK (disulfide 3-14) [deletion type human peptide hCS-15]	0.8

P: DRMPCRNFFWKTFSSCK (disulfide 5-16) [human peptide hCS-17]
Q: CRNFFWKTFSSCK (disulfide 1-12) [deletion type human peptide hCS-13]
In the pair P and Q , the larger recorded IC50 belongs to which? Let me know the label of the one you choose.
P
(P: 0.6 nM, Q: 0.3 nM)
